Experiment: qHTS assay to identify small molecule antagonists of the peroxisome proliferator-activated receptor gamma (PPARg) signaling pathway - cell viability counter screen (AID 743194); note: % is set by controls: 0 for no effect and ±100 for the full control effect; nearly all actives have a fitted effect of over 55% in size
Conditions: PPARg-bla HEK293H viability, CellTiter-Glo luminescence, 17 h; series mostly up to 62.6 µM
Inconclusive results are not listed. Active and inactive are the calls of the source. Calls come from the whole dose curve; as a rule, active = well fitted cell-killing curve with a large enough effect in the repeat runs; inconclusive = weak or mixed curves, or effect the other way; inactive = no such curve, though single readings can be large or run the other way.
Assay Readout: outcome

Compound	Result
O=C(O)CCCc1ccc(N(CCCl)CCCl)cc1	inactive
CCCOC(=O)c1ccccc1C(=O)OCCC	inactive
C=CCN=C=S	inactive
Clc1cnc(Oc2ccc(Oc3ncc(Cl)cc3Cl)cc2)c(Cl)c1	inactive
CN(C)C(=O)C(c1ccccc1)c1ccccc1	inactive
OCc1ccco1	inactive
CC(C)CCCCCCOC(=O)c1ccccc1C(=O)OCCCCCCC(C)C	inactive
COS(=O)(=O)OC	inactive
CCNc1nc(Cl)nc(NC(C)C)n1	inactive
Cc1ccc(N)cc1	inactive
CN(C)CCC#N	inactive
COc1nc(NC(C)C)nc(NC(C)C)n1	inactive
CC(C)c1cccc(C(C)C)c1O	inactive
CCOc1ccc(N)cc1	inactive
CNC(=O)O/N=C(\SC)C(=O)N(C)C	inactive
CNC(=O)Oc1cccc2ccccc12	inactive
N#Cc1ccccn1	inactive
Nc1nc(N)nc(NC2CC2)n1	inactive
ClCCOCCCl	inactive
Cc1cc(O)ccc1Cl	inactive
N#Cc1cccc(C#N)c1	inactive
O=C(O)Cc1ccccc1	inactive
Cl[C@H]1OCCO[C@@H]1Cl	inactive
CSc1nnc(C(C)(C)C)c(=O)n1N	inactive
C=CC(=O)OCCCCCC(C)C	inactive
C=CC#N	inactive
CCOP(=S)(OCC)Oc1cc(C)nc(C(C)C)n1	inactive
CN(C)C(=O)Nc1cccc(C(F)(F)F)c1	inactive
CNCC(O)c1ccc(O)cc1 (centres undefined)	inactive
O=C/C=C/c1ccccc1	inactive
CCOC(=O)CC(SP(=O)(OC)OC)C(=O)OCC (centres undefined)	inactive
N#CN=C(N)N	inactive
Cl/C=C/Cl	inactive
CC(C)(C)C(=O)CCl	inactive

* * *

Test: qHTS assay to identify small molecule antagonists of the thyroid receptor (TR) signaling pathway - cell viability counter screen (AID 743064); note: % is set by controls: 0 for no effect and ±100 for the full control effect; nearly all actives have a fitted effect of over 50% in size
Details: GH3.TRE-Luc viability, CellTiter-Fluor, 24 h; series mostly up to 70.3 µM
Inconclusive results are not listed. Activity calls are given as the source filed them. The call rests on the fitted dose curve; in most records, active means well fitted cell-killing curve with a large enough effect in the repeat runs; inconclusive means weak or mixed curves, or effect the other way; inactive means no such curve, though single readings can be large or run the other way.

Compound	outcome
CN1C(=O)CCS(=O)(=O)C1c1ccc(Cl)cc1 (stereo not given)	inactive
c1ccc2c(c1)CCCC2	inactive
CC(C)CCCCCCOC(=O)c1ccccc1C(=O)OCCCCCCC(C)C	inactive
Cc1ccc(N)cc1	inactive
[N-]=[N+]=CC(=O)OC[C@H](N)C(=O)O	inactive
O=S(=O)(O)OOS(=O)(=O)O	inactive
FC(F)(F)c1ccc(Cl)cc1	inactive
CCCCC(CC)C(=O)Cl (stereo not given)	inactive
CCOC(=O)CC(SP(=O)(OC)OC)C(=O)OCC (stereo not given)	inactive
CNCC(O)c1ccc(O)cc1 (stereo not given)	inactive
Cc1cccc(N)c1	inactive
CC12CC1(C)C(=O)N(c1cc(Cl)cc(Cl)c1)C2=O (stereo not given)	inactive
CN(C)CCC#N	inactive
Oc1ccc(Cl)cc1	inactive
N#Cc1cccc(C#N)c1	inactive

* * *

Assay: qHTS assay for identifying genotoxic compounds that show differential cytotoxicity against isogenic chicken DT40 cell lines with known DNA damage response pathways - Rev3 mutant cell line (AID 743014); note: nearly all actives have a fitted effect of over 55% in size
Conditions: chicken DT40 Rev3-/- viability, CellTiter-Glo, 40 h; series mostly up to 68.4 µM
Description: National Center for Advancing Translational Sciences [NCATS] NIH Chemical Genomics Center [NCGC] U.S. Environmental Protection Agency [EPA] National Institutes of Environmental Health Sciences [NIEHS] National Toxicology Program [NTP] U.S. Food and Drug Administration [FDA] DNA repair pathways play a critical role in cellular homeostasis by repairing DNA damage induced by endogenous processes and xenobiotics. […]
Inconclusive results are not listed. The source made the active and inactive calls. The call rests on the fitted dose curve; in most records, active means well fitted cell-killing curve with a large enough effect in the repeat runs; inconclusive means weak or mixed curves, or effect the other way; inactive means no such curve, though single readings can be large or run the other way.
Outcome codes: t for active, f for inactive

Compound	Group
Cc1cc(Cl)ccc1OC(C)C(=O)O (stereo not given)	f
CCSC(=O)N1CCCCCC1	f
Cc1ccccc1N	f
O=P1(NCCCl)OCCCN1CCCl (stereo not given)	f
OC[C@@H](O)[C@H]1O[C@@H]2O[C@H](C(Cl)(Cl)Cl)O[C@@H]2[C@H]1O	f
Cc1cccc(C)c1NC(=O)CN1CCCC1=O	f
CC(C)CCCCCCOC(=O)c1ccccc1C(=O)OCCCCCCC(C)C	f
CC12CC1(C)C(=O)N(c1cc(Cl)cc(Cl)c1)C2=O (stereo not given)	t
Cc1ccc(N)cc1	f
C=C(C)C(=O)OCC(CC)CCCC (stereo not given)	f
CSc1nnc(C(C)(C)C)c(=O)n1N	f
CNC(=O)Oc1cccc2ccccc12	f
CNC(=O)O/N=C/C(C)(C)S(C)(=O)=O	f
N#CN=C(N)N	f
Cl/C=C/Cl	f

* * *

// reported activity change, positive = activation per item
Experiment: qHTS assay to identify small molecule agonists of the estrogen related receptor (ERR) signaling pathway from Tox21 library (AID 1224849); note: % is set by controls: 0 for no effect and ±100 for the full control effect; nearly all actives have a fitted effect of over 15% in size
Details: ERR reporter cell line, ONE-Glo luciferase, 18 h; at 92.4 µM (top of the series)
Assay Readout: activity change, positive = activation (%)

Molecule	Assay Readout	Result Number
[N-]=[N+]=CC(=O)OC[C@H](N)C(=O)O	activity change, positive = activation	5.95
COC(C)(C)CCCC(C)C/C=C/C(C)=C/C(=O)OC(C)C (centres undefined)	activity change, positive = activation	-14.1
CNCC(O)c1ccc(O)cc1 (centres undefined)	activity change, positive = activation	2.21
OCc1ccco1	activity change, positive = activation	4.84

* * *

Assay: qHTS assay to identify small molecule agonists of the androgen receptor (AR) signaling pathway in the presence of an antagonist - cell viability counter screen (AID 1259379);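 note: MDA-kb2 human breast cancer cells carrying an MMTV luciferase reporter; % is set by controls: 0 for no effect and ±100 for the full control effect; nearly all actives have a fitted effect of over 25% in size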
Settings: MDA-kb2 viability, CellTiter-Fluor, 16 h; series mostly up to 92.4 µM
Inconclusive results are not listed. Active and inactive are the calls of the source. Calls follow the shape of the dose curve; as a rule, active = well fitted cell-killing curve with a large enough effect in the repeat runs; inconclusive = weak or mixed curves, or effect the other way; inactive = flat fitted curve, though single readings scatter.
Assay Readout: outcome

Compound	Assay Readout	Result
O=C(O)Cc1ccccc1	outcome	inactive
O=C(O)COc1ccccc1	outcome	inactive
O=C(O)c1cc(Oc2ccc(C(F)(F)F)cc2Cl)ccc1[N+](=O)[O-]	outcome	inactive
CC(=O)C1CCOC1=O (stereo unspecified)	outcome	inactive
Clc1cnc(Oc2ccc(Oc3ncc(Cl)cc3Cl)cc2)c(Cl)c1	outcome	inactive
Cc1cc(Cl)ccc1OC(C)C(=O)O (stereo unspecified)	outcome	inactive
CCCCC(CC)C(=O)Cl (stereo unspecified)	outcome	inactive
ClC(Cl)c1ccccc1	outcome	inactive
OCCCCO	outcome	inactive
O=[N+]([O-])c1ccc(Cl)cc1	outcome	inactive
CNC(=O)O/N=C/C(C)(C)S(C)=O (stereo unspecified)	outcome	inactive
OC[C@@H](O)[C@H]1O[C@@H]2O[C@H](C(Cl)(Cl)Cl)O[C@@H]2[C@H]1O	outcome	inactive
Cl/C=C/Cl	outcome	inactive
C/C=C/c1ccc2c(c1)OCO2	outcome	inactive
FC(F)(F)c1ccc(Cl)cc1	outcome	inactive
O=C(O)CCCc1ccc(N(CCCl)CCCl)cc1	outcome	inactive
C=CC(=O)OCC(CC)CCCC (stereo unspecified)	outcome	inactive
Cc1cccc(N)c1	outcome	inactive
Oc1c(Br)cc(Br)cc1Br	outcome	inactive
CC12CC1(C)C(=O)N(c1cc(Cl)cc(Cl)c1)C2=O (stereo unspecified)	outcome	inactive
CSc1nnc(C(C)(C)C)c(=O)n1N	outcome	inactive
N#Cc1cccc(C#N)c1	outcome	inactive
N#CN=C(N)N	outcome	inactive
CCOP(=S)(OCC)Oc1ccc([N+](=O)[O-])cc1	outcome	inactive
C=CC(=O)OCCCCCC(C)C	outcome	inactive
ClCCOCCCl	outcome	inactive

* * *

Experiment: A CellTox Green Cytotoxicity Assay to monitor cytotoxicity in HEK293 cells - 16 hour (AID 1224888); note: % is set by controls: 0 for no effect and ±100 for the full control effect; nearly all actives have a fitted effect of over 35% in size
Settings: CellTox Green fluorescence; series mostly up to 76.8 µM
Results filed as inconclusive are left out. The source made the active and inactive calls. The call rests on the fitted dose curve; in most records, active means well fitted activation curve with a large enough effect in the repeat runs; inconclusive means weak or mixed curves; inactive means flat fitted curve, though single readings scatter.

Molecule	outcome
CN(C)CCC#N	inactive
COC(C)(C)CCCC(C)C/C=C/C(C)=C/C(=O)OC(C)C (stereo unspecified)	inactive
CNCC(O)c1ccc(O)cc1 (stereo unspecified)	inactive
O=S(=O)(O)OOS(=O)(=O)O	inactive
CCOP(=S)(OCC)Oc1cc(C)nc(C(C)C)n1	inactive
Cc1cccc(C)c1N	inactive
CNC(=O)O/N=C(\SC)C(=O)N(C)C	inactive
C=CCN=C=S	inactive
O=C(O)COc1ccccc1	inactive
O=[N+]([O-])c1cc([As](=O)(O)O)ccc1O	inactive
CN(C)C(=O)Nc1cccc(C(F)(F)F)c1	inactive
Cc1cc(Cl)ccc1OC(C)C(=O)O (stereo unspecified)	inactive
NNc1ccccc1	inactive
CC(C)(C)C(=O)CCl	inactive
Nc1cc(Cl)cc(Cl)c1	inactive
Oc1ccc(Cl)cc1	inactive

* * *

Test: A CellTox Green Cytotoxicity Assay to monitor cytotoxicity in HepG2 cells - 16 hour (AID 1224876); note: % is set by controls: 0 for no effect and ±100 for the full control effect; nearly all actives have a fitted effect of over 45% in size
Conditions: CellTox Green fluorescence; series mostly up to 76.8 µM
Records with an inconclusive call do not appear. The source made the active and inactive calls. Calls follow the shape of the dose curve; as a rule, active = well fitted activation curve with a large enough effect in the repeat runs; inconclusive = weak or mixed curves; inactive = flat fitted curve, though single readings scatter.

Compound	outcome
O=S(=O)(O)OOS(=O)(=O)O	inactive
Cc1cccc(C)c1N	inactive
COc1cc(-c2ccc(N)c(OC)c2)ccc1N	inactive
CSc1nnc(C(C)(C)C)c(=O)n1N	inactive
CC(C)CCCCCCOC(=O)c1ccccc1C(=O)OCCCCCCC(C)C	inactive
CC(C)(C)C(=O)CCl	inactive
Nc1ccc(N)cc1	inactive
c1ccc2c(c1)CCCC2	inactive
COP(=S)(OC)SCN1C(=O)c2ccccc2C1=O	inactive
CNC(=O)O/N=C/C(C)(C)S(C)=O (stereo unspecified)	inactive
Oc1ccc(Cl)cc1	inactive
Nc1cc(Cl)cc(Cl)c1	inactive
ClC(Cl)c1ccccc1	inactive
Oc1c(Br)cc(Br)cc1Br	inactive
Cc1ccc(O)c(C)c1	inactive
O=P1(NCCCl)OCCCN1CCCl (stereo unspecified)	inactive
